target: Constitutive 20S proteasome peptidylglutamyl peptide hydrolyzing (PGPH) activity (Homo sapiens (Human), UniProt P28072+Q99436); experiment: Constitutive 20S proteasome PGPH activity inhibition, fluorogenic substrate Z-Leu-Leu-Glu-AMC; assay type: biochemical; details: purified human 20S proteasome, room temperature, one hour
experimental.endpoint: IC50

> print(dat)
                                   compound    reported
1  COC[C@H](NC(=O)[C@H](CCc1ccccc1)NC(=O)c1cc(CN2CCOCC2)on1)C(=O)N[C@@H](Cc1ccccc1)C(=O)[C@@]1(C)CO1 [CX13-603]  > 20000 nM
2  C[C@]1(C(=O)[C@H](Cc2ccccc2)NC(=O)[C@H](Cc2cscn2)NC(=O)[C@H](CCc2ccccc2)NC(=O)c2cc(CN3CCOCC3)on2)CO1 [CX13-605]  > 20000 nM

--- query ---
Request: # input compound: COC[C@H](NC(=O)c1cc(C)on1)C(=O)N[C@@H](Cc1ccncc1)C(=O)N[C@@H](CC(C)C)C(=O)[C@@]1(C)CO1 [CX13-501] ; wanted: its IC50
Result: > 20000 nM

Attribution: patent US10640533B2
